Procedure details: in vivo
Study conditions: both, beagle, dog, in vivo, po, 30 mg/kg, Tmax
Experimental endpoint: Tmax (h)

Cn1c(=O)n([C@@H]2CCC(=O)NC2=O)c2cccc(C#CCOC3CCN(C[C@H]4CC[C@H](n5cc(NC(=O)c6cnn7ccc(N8C[C@H]9C[C@@H]8CO9)nc67)c(C(F)F)n5)CC4)CC3)c21: 4
Cn1c(=O)n([C@H]2CCC(=O)NC2=O)c2cccc(C#CCOC3CCN(C[C@H]4CC[C@H](n5cc(NC(=O)c6cnn7ccc(N8C[C@H]9C[C@@H]8CO9)nc67)c(C(F)F)n5)CC4)CC3)c21: 4

###

Procedure details: 4-week oral gavage toxicokinetic study with Compound A in dogs (plasma)
Study conditions: both, beagle, dog, plasma, po, 5 mg/kg, t1/2, mean elimination half-life; dog plasma; Day 8; Group 2; Cmpd A 5 mg/kg/dose oral gavage
Experimental endpoint: half-life (h)
Field format: number, assumed h, no unit text.

Reported half-life ( Cn1c(=O)n(C2CCC(=O)NC2=O)c2cccc(C#CCOC3CCN(C[C@H]4CC[C@H](n5cc(NC(=O)c6cnn7ccc(N8C[C@H]9C[C@@H]8CO9)nc67)c(C(F)F)n5)CC4)CC3)c21 (stereo partly shown) [Compound A] ) = 8.08
